Please find below IC50 measurements for human ACC2 (Homo sapiens (Human), UniProt O00763), combined from several publications.
Observable: IC50 (nM)

Here is how some compounds turned out for IC50.
| Compound | Observable | Numeric Readout |
| --- | --- | --- |
| CC(=O)Nc1nc(CNC(=O)C(C)c2ccc(O[C@@H]3CCN(c4ncnc(OCC(C)(F)F)c4F)C3)cc2)cs1 (some centres unmarked) | IC50 | 1380 |
| CC(C(=O)Nc1cccnc1)c1ccc(O[C@@H]2CCN(c3ncnc(OCC(C)(F)F)c3F)C2)cc1 (some centres unmarked) | IC50 | 480 |
| CC(=O)NC(C)Cc1ccc(C#Cc2cnc(OC(C)CF)nc2)cc1 (centres unmarked) | IC50 | 520 |
| CC(=O)NC(C)Cc1ccc(C#Cc2ccc(Br)cc2F)cc1 (centres unmarked) | IC50 | 1100 |

P. CC(=O)N[C@@H](C)c1ccc(C2CN(c3ccnc(OCC(F)F)c3)C2)cc1
Q. C[C@H](NC(=O)N(C)C)c1ccc(OC2CCN(c3ccnc(OCC4CC4)c3)C2)cc1 (some centres unmarked)
R. CC(=O)N[C@@H](C)c1ccc(OC2CCN(c3ccc(OCC4CC4)cc3)C2)cn1 (some centres unmarked)
Returns the items ordered by IC50, from maximum to minimum. Please list the labels according to the requested order. R, P, Q
(R: 1780 nM, P: 1220 nM, Q: 85 nM)

====

Multi-source literature compilation: IC50 on human ACC2 (Homo sapiens (Human)).
Observable: IC50 (nM)

Reference set (2 entries):
| Molecule | Target | Unit Info | IC50 |
| --- | --- | --- | --- |
| COc1c(N2CC[C@@H](Oc3ccc([C@H](C)NC(C)=O)cc3)C2)ccnc1OCC(C)(C)OC | human ACC2 (Homo sapiens (Human)) | nM | 156 |
| CC(=O)NC(C)c1ccc(C#Cc2ccc(OC3CCCC3)nc2)cc1 (stereo not shown) | human ACC2 (Homo sapiens (Human)) | nM | 450 |

I. C[C@H](NC(=O)C1CCC1)c1ccc(OC2CCN(c3cccc(C(F)(F)F)n3)C2)cc1 (stereo partly shown)
II. CC(C(=O)Nc1cccnc1)c1ccc(O[C@@H]2CCN(c3ncnc(OCC(C)(C)O)c3Cl)C2)cc1 (stereo partly shown)
III. CC(=O)N[C@@H](C)c1ccc(CN2CCc3c(ccc(OC(C)C)c3Br)C2)cc1
IV. CC(=O)N[C@@H](C)c1ccc(OC2CCN(c3ccc4c(c3F)OCO4)C2)cc1 (stereo partly shown)
Order the records so the highest IC50 appears first and the lowest last. In plain terms: list the labels in the order you were asked to. I, IV, II, III
(I: 891 nM, IV: 558 nM, II: 318 nM, III: 136 nM)

====

A compilation of published IC50 results with UniProtKB O00763.
Observable: IC50 (nM)

P. CC(C)Oc1cc(N2CCC(Oc3ccc([C@H](C)NC(=O)C(F)F)cc3)C2)ccn1 (stereo partly shown)
Q. CCCOc1ccc(C#Cc2ccc(C(C)(C)C(N)=O)cc2)cc1
R. CCNc1ncc(C#Cc2ccc(CC(C)NC(=O)OC)cc2)cn1 (stereo not shown)
S. CC(=O)N[C@@H](C)c1ccc(O[C@@H]2CCN(c3ccnc(N4CCC4)c3Cl)C2)cc1
Which order do these items fall in when sorted by IC50 from largest to smallest? # list labels per requested ordering Q, R, P, S

====

IC50 for human ACC2 (Homo sapiens (Human)) - collated from the literature.
Observable: IC50 (nM)

1. CCNC(=O)C(C)c1ccc(C#Cc2cnc(OC3CCC3)nc2)cc1 (stereo not shown)
2. CC(=O)NC(C)Cc1ccc(C#Cc2ccc(N3CCCCC3=O)cc2)cc1 (stereo not shown)
3. CCOC1CCCC2(C1)NC(=O)C(c1c(C)ccc(-c3ccc(Cl)cc3)c1C)=C2O (stereo not shown)
4. CC(=O)N[C@@H](C)c1ccc(O[C@H]2CCN(c3ccc(OCC4CC4)cc3)C2)cc1
5. CC(=O)N[C@@H](C)c1ccc(O[C@@H]2CCN(c3ccnc(OCc4ccncc4)c3)C2)cc1
Give the descending IC50 ranking for the 5 compounds listed above. Give the labels in the order specified. 3, 2, 5, 1, 4
(3: 4970 nM, 2: 1400 nM, 5: 584 nM, 1: 400 nM, 4: 180 nM)

I. CC(C)CNC(=O)Cc1ccc(C2CCN(c3ccnc(N(C)C4CCCC4)n3)CC2)cc1
II. CC(=O)N[C@@H](C)c1ccc(C#Cc2cnc(OCCC(F)(F)F)nc2)cc1
Looking at I and II , which one comes out lower in IC50 terms? Select an item and report its label. II

====

pIC50: −log10 of the molar value.
Listed below are compounds with pIC50 for UniProt:O00763, each taken from published literature.
Observable: pIC50

1. CCOc1ccc(C#Cc2ccc(C(C)NC(=O)c3ccccn3)cc2)cc1 (stereo not drawn)
2. Cc1ccc(-c2ccc(Cl)cc2)cc1C1=C(O)C2(CCC3(CC2)OCC(C)(C)CO3)NC1=O
3. C[C@H](NC(=O)CC(N)=O)c1ccc(CN2Cc3ccc(OCC4CC4)cc3C(F)C2)cc1 (stereo partly drawn)
4. CC[C@@H](C)NC(=O)C(C)c1ccc(O[C@@H]2CCN(c3ncnc(OCC(C)(C)O)c3Cl)C2)cc1 (stereo partly drawn)
# rank_down: sort by pIC50, max first Your reply should list the labels following the order given in the request. 3, 4, 2, 1
(3: 6.94, 4: 6.33, 2: 5.84, 1: 5.57)

====

Endpoint summary: IC50, system: human ACC2 (Homo sapiens (Human), UniProt O00763), multiple sources combined.
Observable: IC50 (nM)

Examples with answers:
| Compound | Observable | Unit Info | Numeric Readout |
| --- | --- | --- | --- |
| CC(=O)N[C@@H](C)c1ccc(C2CN(c3ncnc(OCC4CC4)c3F)C2)cc1 | IC50 | nM | 400 |
| CC(=O)NC(C)Cc1ccc(C#Cc2cnc(N(C)C3CCCC3)nc2)cc1 (stereo not shown) | IC50 | nM | 190 |

a. CC(=O)NC(C)Cc1ccc(C#Cc2cnc(N[C@@H]3CCc4ccccc43)nc2)cc1 (stereo partly shown)
b. CCOC(=O)C1(Oc2ccc(N3CCC(Oc4ccc([C@H](C)NC(C)=O)cc4)C3)cc2)CCC1 (stereo partly shown)
For the two items a and b , which reports the higher IC50 value? Mark your selection by writing its label. b

====

Literature-derived pIC50 for human ACC2 (Homo sapiens (Human), UniProt O00763) follows.
pIC50: −log10 of the molar value.
Observable: pIC50

Completed entries (count: 9):
| Compound | Target | Numeric Readout |
| --- | --- | --- |
| CC(CNC(=O)CC#N)c1ccc(C#Cc2cnc(OC3CCC3)nc2)cc1 (stereo not drawn) | human ACC2 (Homo sapiens (Human), UniProt O00763) | 6.18 |
| C[C@H](NC(=O)C1CC1)c1ccc(C#Cc2cnc(OCCC(F)(F)F)nc2)cc1 | human ACC2 (Homo sapiens (Human), UniProt O00763) | 5.96 |
| CCCOc1ccc(C#Cc2ccc(C(C)(C)CNC(C)=O)cc2)cn1 | human ACC2 (Homo sapiens (Human), UniProt O00763) | 6.89 |
| CCC(=O)N[C@@H](C)c1ccc(OC2CCN(c3ccc(OC[C@H]4CC4(F)F)cn3)C2)cc1 (stereo partly drawn) | human ACC2 (Homo sapiens (Human), UniProt O00763) | 7.17 |
| CCNC(=O)C(C)c1ccc(C#Cc2cnc(NC(C)C)nc2)cc1 (stereo not drawn) | human ACC2 (Homo sapiens (Human), UniProt O00763) | 6.16 |
| CNC(=O)c1cccc(C(=O)N[C@@H](C)c2ccc(O[C@@H]3CCN(c4ccc(OCC5CC5)cc4)C3)cc2)n1 | human ACC2 (Homo sapiens (Human), UniProt O00763) | 6.15 |
| Cc1[nH]ncc1C(=O)N[C@@H](C)c1ccc(CN2CCc3cc(OCC4CC4(F)F)ccc3C2)cc1 (stereo partly drawn) | human ACC2 (Homo sapiens (Human), UniProt O00763) | 6.91 |
| C[C@H](NC(=O)C1(C)CC1)c1ccc(OC2CCN(c3ccnc(OCC4CC4)c3)C2)cc1 (stereo partly drawn) | human ACC2 (Homo sapiens (Human), UniProt O00763) | 7.19 |
| CCNC(=O)C(C)c1ccc(C2CCN(c3ccc(OC4CCC4)cc3)CC2)cc1 (stereo not drawn) | human ACC2 (Homo sapiens (Human), UniProt O00763) | 6.92 |

1. CCNC(=O)C(C)c1ccc(C#Cc2cnc(Oc3ccccc3)nc2)cc1 (stereo not drawn)
2. CC(=O)N[C@@H](C)c1ccc(O[C@@H]2CCN(c3ccnc(N4CCC(C)(O)C4)c3Cl)C2)cc1 (stereo partly drawn)
# return whichever of 1 and 2 has the smaller pIC50 Refer to your chosen entry by its label in the reply. 1
(1: 6.04, 2: 6.94)

====

Several publications report IC50 on human ACC2 (Homo sapiens (Human), UniProt O00763); those values are gathered here.
Observable: IC50 (nM)

Example entries begin here.
| Molecule | Target | Unit Info | Numeric Readout |
| --- | --- | --- | --- |
| CC(=O)N[C@@H](C)c1ccc(OC2CCN(c3ccccc3)C2)cc1 (stereo partly drawn) | human ACC2 (Homo sapiens (Human), UniProt O00763) | nM | 435 |
| CC(=O)NC(C)CCc1ccc(C2CN(c3ncc(C4CC4)cn3)C2)cc1 (stereo not drawn) | human ACC2 (Homo sapiens (Human), UniProt O00763) | nM | 2560 |
| CC(=O)NC(C)Cc1ccc(C#Cc2ccc(OCCC(F)(F)F)cc2)cc1 (stereo not drawn) | human ACC2 (Homo sapiens (Human), UniProt O00763) | nM | 100 |

1. CC(Cc1ccc(C#Cc2cnc(N3CCCCC3)nc2)cc1)NC(=O)C1CC1 (stereo not drawn)
2. CCCOc1ncc(C#Cc2ccc(CC(C)NC(C)=O)cc2)cn1 (stereo not drawn)
Task for the reader: decide whether 1 or 2 has the larger IC50. Field: selected label. Fill in the label of the entry you choose. 1
